Reported EC50 values for a set of compounds
- Test system: Jurkat
- TEST DETAILS: Inhibition of TNF-alpha-induced response in Jurkat cells
- CONDITION SUMMARY: Homo sapiens
RESULT TYPE: EC50

COc1ccccc1-c1cc2nc(NCCN)c3ncc(C)n3c2s1 ... > 100 µM
Cc1cnc2c(NCCN)nc3cc(-c4ccccc4)sc3n12 ... > 100 µM
Cc1cnc2c(NCCN)nc3ccsc3n12 ... > 100 µM
Cc1cnc2c(NCCN)nc3cc(-c4ccc(CO)cc4)sc3n12 ... 40.9 µM
Cc1cnc2c(NCCN)nc3cc(-c4ccccc4CO)sc3n12 ... 15.6 µM
Cc1cnc2c(NCCO)nc3cc(-c4ccccc4)sc3n12 ... 7.17 µM
CNc1nc2cc(-c3cccc(CN)c3)sc2n2c(C)cnc12 ... 5.88 µM
CNc1nc2cc(-c3cccc(CC(N)C(=O)O)c3)sc2n2c(C)cnc12 (centres undefined) ... > 100 µM
Cc1cnc2c(NCC(N)=O)nc3cc(-c4ccccc4)sc3n12 ... > 100 µM
Cc1cnc2c(NCCN)nc3cc(C4=NCN=C4)sc3n12 ... > 100 µM
CNc1nc2cc(-c3ccccc3)sc2n2c(C)cnc12 ... 1.35 µM
CNc1nc2cc(-c3cccc(C(N)=O)c3)sc2n2c(C)cnc12 ... 35.6 µM
Cc1cnc2c(NCCNC=O)nc3cc(-c4ccccc4)sc3n12 ... 3.16 µM
CNc1nc2cc(-c3cccc(CC(N)=O)c3)sc2n2c(C)cnc12 ... 0.36 µM

###

- TESTED TARGET: Inhibitor of nuclear factor kappa-B kinase subunit beta (Homo sapiens, UniProt O14920)
- Sequence (O14920 whole entry): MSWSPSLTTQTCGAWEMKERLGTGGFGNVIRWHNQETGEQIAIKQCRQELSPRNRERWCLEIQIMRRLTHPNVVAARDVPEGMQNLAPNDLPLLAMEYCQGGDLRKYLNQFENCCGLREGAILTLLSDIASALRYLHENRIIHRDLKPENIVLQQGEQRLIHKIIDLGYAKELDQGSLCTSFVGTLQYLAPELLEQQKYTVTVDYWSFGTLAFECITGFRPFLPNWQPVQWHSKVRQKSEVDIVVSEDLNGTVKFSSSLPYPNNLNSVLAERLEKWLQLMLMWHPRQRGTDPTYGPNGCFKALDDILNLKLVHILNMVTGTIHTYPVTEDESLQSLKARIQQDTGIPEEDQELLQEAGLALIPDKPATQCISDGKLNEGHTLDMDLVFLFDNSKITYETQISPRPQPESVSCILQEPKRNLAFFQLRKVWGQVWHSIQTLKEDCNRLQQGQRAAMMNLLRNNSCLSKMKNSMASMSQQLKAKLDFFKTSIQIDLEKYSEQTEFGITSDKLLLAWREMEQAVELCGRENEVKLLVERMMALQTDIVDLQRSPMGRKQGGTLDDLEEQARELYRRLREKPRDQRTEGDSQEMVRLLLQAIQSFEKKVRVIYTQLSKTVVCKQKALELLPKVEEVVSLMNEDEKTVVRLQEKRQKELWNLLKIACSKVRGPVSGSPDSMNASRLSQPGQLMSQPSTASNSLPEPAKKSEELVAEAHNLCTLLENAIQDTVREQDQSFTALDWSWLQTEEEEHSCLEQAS
// boundary case: IC50 equal to 30 nM maps to Condition not met; strictly smaller maps to Condition met

COc1nc2cc(-c3ccccc3)sc2n2c(C)cnc12 ... Condition not met
Cc1cnc2c(NCCN)nc3cc(-c4ccc[nH]4)sc3n12 ... Condition not met
Cc1cnc2c(NCCN)nc3cc(-c4ccoc4)sc3n12 ... Condition met
CNC(=O)CNCCc1cccc(-c2cc3nc(NC)c4ncc(C)n4c3s2)c1 ... Condition not met
Cc1cnc2c(NCCN)nc3cc(-c4ccc(CO)cc4)sc3n12 ... Condition met
CNc1nc2cc(-c3cccc(CCNC(C)=O)c3)sc2n2c(C)cnc12 ... Condition met
Cc1cnc2c(NCCN)nc3cc(-c4cn[nH]c4)sc3n12 ... Condition met
CNc1nc2cc(-c3cccc(CCC(N)=O)c3)sc2n2c(C)cnc12 ... Condition met
CNc1nc2cc(-c3cccc(CC(N)C(=O)O)c3)sc2n2c(C)cnc12 (stereo unspecified) ... Condition met
Cc1cnc2c(NCCN)nc3cc(-c4nccs4)sc3n12 ... Condition not met
CNc1nc2cc(-c3cccc(CNC(C)=O)c3)sc2n2c(C)cnc12 ... Condition not met

###

- Test system: Jurkat
- TEST DETAILS: Inhibition of TNF-alpha-induced response in Jurkat cells
- CONDITION SUMMARY: Homo sapiens
pEC50: −log10 of the molar value.
RESULT TYPE: pEC50

Cc1cnc2c(NCCN)nc3cc(-c4cccc(CCO)c4)sc3n12 ... 6.02
Cc1cnc2c(NCCN)nc3cc(-c4nccs4)sc3n12 ... 4.73
CNCCNc1nc2cc3ccccc3cc2n2c(C)cnc12 ... 6.07
Cc1cnc2c(N)nc3cc(-c4ccccc4)sc3n12 ... 4.77

###

Reported log10 of IC50 values for a set of compounds
- TESTED TARGET: Inhibitor of nuclear factor kappa-B kinase subunit alpha (Homo sapiens)
- Sequence (O15111 whole entry): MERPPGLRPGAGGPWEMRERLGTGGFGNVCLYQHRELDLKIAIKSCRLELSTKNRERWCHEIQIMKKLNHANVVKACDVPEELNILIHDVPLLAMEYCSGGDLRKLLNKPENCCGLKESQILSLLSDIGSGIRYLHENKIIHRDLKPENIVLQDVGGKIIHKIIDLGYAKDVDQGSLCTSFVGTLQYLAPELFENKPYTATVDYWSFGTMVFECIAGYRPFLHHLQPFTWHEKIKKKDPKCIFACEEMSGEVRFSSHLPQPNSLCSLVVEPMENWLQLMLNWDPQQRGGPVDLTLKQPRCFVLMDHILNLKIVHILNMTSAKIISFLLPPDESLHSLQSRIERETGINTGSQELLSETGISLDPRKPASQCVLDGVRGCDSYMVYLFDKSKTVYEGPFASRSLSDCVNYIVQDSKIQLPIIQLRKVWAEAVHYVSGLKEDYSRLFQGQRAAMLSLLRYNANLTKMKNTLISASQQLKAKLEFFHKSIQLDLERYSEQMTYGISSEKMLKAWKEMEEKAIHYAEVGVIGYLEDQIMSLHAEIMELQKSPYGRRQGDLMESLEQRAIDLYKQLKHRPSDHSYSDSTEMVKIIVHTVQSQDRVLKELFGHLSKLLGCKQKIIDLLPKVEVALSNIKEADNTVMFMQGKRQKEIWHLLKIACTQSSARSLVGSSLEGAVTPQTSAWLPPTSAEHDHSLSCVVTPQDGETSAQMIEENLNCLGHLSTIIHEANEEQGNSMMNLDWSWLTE
RESULT TYPE: log10 of IC50 (log10 of the value in nM)

CNc1nc2cc(C)sc2n2c(C)cnc12 ... 3.89
CC(=O)NCCNc1nc2cc(-c3ccccc3)sc2n2c(C)cnc12 ... 3.85
CNc1nc2cc(-c3ccccc3)sc2n2c(C)cnc12 ... 3.04
Cc1cnc2c(NCCN(C)C)nc3cc(-c4ccccc4)sc3n12 ... 3.07
CNc1nc2cc(-c3cccc(CC(N)C(=O)O)c3)sc2n2c(C)cnc12 (stereo not given) ... 3.10
CNC(=O)C(N)Cc1cccc(-c2cc3nc(NC)c4ncc(C)n4c3s2)c1 (racemic) ... 2.52
Cc1cnc2c(NCCNC=O)nc3cc(-c4ccccc4)sc3n12 ... 3.90
Cc1cnc2c(NCCN)nc3cc(-c4ccccc4CO)sc3n12 ... 3.64
Cc1cnc2c(NCCN)nc3cc(-c4ccoc4)sc3n12 ... 2.97
COc1cccc(-c2cc3nc(NCCN)c4ncc(C)n4c3s2)c1 ... 2.84
CNc1nc2cc(-c3cccc(C(=O)O)c3)sc2n2c(C)cnc12 ... 4.16
CNc1nc2cc(-c3cccc(C[C@H](N)C(N)=O)c3)sc2n2c(C)cnc12 ... 2.41
CNCCNc1nc2cc3ccccc3cc2n2c(C)cnc12 ... 2.62
CNc1nc2ccsc2n2c(C)cnc12 ... 3.61
CNc1nc2cc(-c3cccc(CNC(C)=O)c3)sc2n2c(C)cnc12 ... 2.89
Cc1cnc2c(NCCN)nc3cc(-c4nccs4)sc3n12 ... 3.05
CNc1nc2cc(-c3cccc(CCN)c3)sc2n2c(C)cnc12 ... 2.81
Cc1cnc2c(NCCN)nc3cc(-c4cccnc4)sc3n12 ... 3.41
Cc1cnc2c(NCCN)nc3cc(-c4ccccc4)sc3n12 ... 2.96
Cc1cnc2c(NCCN)nc3cc(-c4ccc[nH]4)sc3n12 ... 3.10
Cc1cnc2c(NCCN)nc3cc(C4=NCN=C4)sc3n12 ... 3.59
COc1ccccc1-c1cc2nc(NCCN)c3ncc(C)n3c2s1 ... 4.11
COc1ccc(-c2cc3nc(NCCN)c4ncc(C)n4c3s2)cc1 ... 3.45
Cc1cnc2c(N)nc3cc(-c4ccccc4)sc3n12 ... 3.81
Cc1cnc2c(NCCN)nc3ccsc3n12 ... 4.08
CNc1nc2cc(-c3cccc(CCNS(N)(=O)=O)c3)sc2n2c(C)cnc12 ... 2.64
Cc1cnc2c(NCCN)nc3cc(-c4ccncc4)sc3n12 ... 3.47
CNc1nc2cc(-c3cccc(CCNCC(N)=O)c3)sc2n2c(C)cnc12 ... 2.59
Cc1cnc2c(NCCN)nc3cc(-c4ccc(CO)cc4)sc3n12 ... 3.37
CNc1nc2cc(-c3cccc(CNCC(N)=O)c3)sc2n2c(C)cnc12 ... 2.71
CNc1nc2cc(-c3cccc(CNC(N)=O)c3)sc2n2c(C)cnc12 ... 2.41
Cc1cnc2c(NCCN)nc3cc(-c4cccc(CO)c4)sc3n12 ... 2.65
CNc1nc2cc(-c3cccc(CNS(N)(=O)=O)c3)sc2n2c(C)cnc12 ... 2.23
CNc1nc2cc(-c3cccc(CCC(=O)O)c3)sc2n2c(C)cnc12 ... 3.13
Cc1cnc2c(NCCN)nc3cc(-c4ccccn4)sc3n12 ... 3.09
CNc1nc2cc(-c3cccc(CCNC(C)=O)c3)sc2n2c(C)cnc12 ... 2.91
CNc1nc2cc(-c3cccc(C[C@@H](N)C(N)=O)c3)sc2n2c(C)cnc12 ... 2.28
CCNc1nc2cc(-c3ccccc3)sc2n2c(C)cnc12 ... 3.30
CNc1nc2cc(-c3cccc(CN)c3)sc2n2c(C)cnc12 ... 2.34
CCNC(=O)C(N)Cc1cccc(-c2cc3nc(NC)c4ncc(C)n4c3s2)c1 (racemic) ... 3.00
Cc1cnc2c(NCCN)nc3cc(-c4cn[nH]c4)sc3n12 ... 3.16
CNc1nc2cc(-c3cccc(CC(N)=O)c3)sc2n2c(C)cnc12 ... 2.83
